- Tested on: C. truncatus
- Procedure details: Laboratory dual-choice cage bioassays of co-attractant solutions
- Type: in vivo, Carpophilus truncatus
- Experimental context: Experiment #2: solution lacking one component vs full commercial co-attractant (CL)
Experimental endpoint: effect of individual component of commercial co-attractant on C. truncatus

See these solved cases before continuing.
Request the reported effect of individual component of commercial co-attractant on C. truncatus associated with CCC(C)CO (stereo not drawn)
deterrent effect

Request the reported effect of individual component of commercial co-attractant on C. truncatus associated with CC=O
deterrent effect

Request the reported effect of individual component of commercial co-attractant on C. truncatus associated with CC(C)CCO
main attractants

Request the reported effect of individual component of commercial co-attractant on C. truncatus associated with CCO
main attractants

Next:
Request the reported effect of individual component of commercial co-attractant on C. truncatus associated with CCOC(C)=O [ethyl acetate]
deterrent effect
